# Tested on: HOP-62 NSCLC
# assay: NCI tumour cell line growth inhibition, 48 h
Where a SMILES comes first, the peptide text is derived from it. [ ]: non-standard residue; d: D form. The star is where a group is joined. ξ: configuration not given here. ξNMeF = CNC(Cc1ccccc1)C(=O)O; NMeV = CN[C@H](C(=O)O)C(C)C; Boc = CC(C)(C)OC(=O)*; OBn = c1ccc(CO*)cc1
I'd be grateful if you could share measured TGI for these entries.

Record O=C(O)c1ccc2c(c1)C(=O)N(c1ccc(S(=O)(=O)c3ccc(N4C(=O)c5ccc(C(=O)O)cc5C4=O)cc3)cc1)C2=O : what is its TGI with HOP-62 NSCLC?
> 100 µM

// fetch HOP-62 NSCLC TGI for O=C(Oc1ccccc1)N(c1ccccc1)c1ccccc1
> 100 µM

Observed TGI on HOP-62 NSCLC for Cc1ccc2[nH]c3c(c(=O)n(C)c(=O)n3C)c2c1 , please.
> 100 µM

Tell me reported TGI for CCOP(=O)(C/C=C/Cn1ncc(=O)[nH]c1=O)OCC , tested with HOP-62 NSCLC.
> 100 µM

Record C/C(O)=C(\C=N\C(=S)N=Nc1c(O)[nH]c2ccccc12)C(=O)Nc1ccccc1C : what is its TGI with HOP-62 NSCLC?
> 100 µM

# get_value(readout= TGI, system= HOP-62 NSCLC) for O=C1C=C(c2ccccc2)OC1C1Sc2ccccc2NC1=O (centres undefined)
> 19.8 µM

Return TGI measured with HOP-62 NSCLC given this molecule: CCN(CC)C1Oc2cc3c(cc2C(c2cc(OC)c(O)c(OC)c2)C1C)OCO3 (centres undefined)
39.6 µM

Enter reported TGI observed with HOP-62 NSCLC for CCCCN=NNc1cn(C2OC(CO)C(O)C2O)c(=O)[nH]c1=O (centres undefined)
> 100 µM

Hi! What's the reported TGI for C/C(=C\COP(=O)(O)OP(=O)(O)O)CCCCCCOCc1ccccc1 on HOP-62 NSCLC?
> 100 µM

Find the measured TGI: item COc1cc(S(=O)(=O)Nc2ccc(-c3csc(N4C(=O)C(C)SC4c4cccs4)n3)cc2)ccc1Cl (centres undefined) , target or system HOP-62 NSCLC.
> 100 µM

Lookup: TGI / HOP-62 NSCLC / C[P+]1(Cc2ccccc2)CCCC1
> 100 µM

Request - read-out TGI | tested on HOP-62 NSCLC | molecule C/C=C/C(=O)Oc1cccc2cccnc12
> 100 µM

Recorded TGI for CC(=O)OCC1(C)C(O)CCC2(C)C1CCC1CC3CC12CCC3(O)CO (centres undefined) with HOP-62 NSCLC, please?
> 100 µM

Which TGI is reported with HOP-62 NSCLC for this entry: CC[C@H](C)[C@@H]([C@@H](CC(=O)N1CCC[C@H]1[C@H](OC)[C@@H](C)C(=O)NCCc1ccccc1)OC)N(C)C(=O)C(NC(=O)[C@H](C(C)C)N(C)C)C(C)C (some centres undefined) ?
3.02 µM

What reported TGI corresponds to C=C1c2nc3ccccc3n2C=C(c2ccccc2)N1c1ccc(Cl)cc1 on HOP-62 NSCLC?
> 63.3 µM

Tell me reported TGI for COC(=O)c1c[nH]c2cc(OC(C)C)c(OC(C)C)cc2c1=O , tested with HOP-62 NSCLC.
> 100 µM

Which measured TGI belongs to CC(C)[C@@H](C(=O)N(C)[C@H](C(=O)N1CCC[C@H]1C(=O)OCc1ccccc1)C(C)C)N(C)C(=O)C(Cc1ccccc1)N(C)C(=O)[C@H](NC(=O)OC(C)(C)C)C(C)C (some centres undefined) (Boc-[dV][ξNMeF][NMeV][NMeV]P-OBn) , tested on HOP-62 NSCLC?
> 31.6 µM

Give HOP-62 NSCLC TGI for Cc1cccc(C)c1NC(=O)CCC(=O)NC(N)=NC#N
> 100 µM

Query the reported TGI for HOP-62 NSCLC; item: O=C1Nc2ccc(Br)cc2/C1=N/S(=O)(=O)O
> 100 µM
